From: patent US10711008B2

Tested on: SKES (type 2, 7/5) cells (Ewing Sarcoma cell line)
method.summary: Cell growth inhibition, modified tetrazolium salt assay (CCK-8 kit), SKES cells
Assay type: cell-based, human
details: 3 days with compound at 0.02 to 5 μM, CCK-8, A450, 50% inhibition of cell viability
endpoint: IC50

Please give the measured IC50 for this molecule: O=C(CC1(O)C(=O)Nc2c(Cl)ccc(Cl)c21)c1ccc(C2CC2)cc1 (stereo not shown) [TK-216-2, reference compound]
< 5 µM
